assayedTarget: T1, Mouse MuSK as it stands on mouse muscle (neuromuscular junctions, C2C12 myotubes) (mouse, UniProt Q61006 22-868)
T1 sequence (looked up): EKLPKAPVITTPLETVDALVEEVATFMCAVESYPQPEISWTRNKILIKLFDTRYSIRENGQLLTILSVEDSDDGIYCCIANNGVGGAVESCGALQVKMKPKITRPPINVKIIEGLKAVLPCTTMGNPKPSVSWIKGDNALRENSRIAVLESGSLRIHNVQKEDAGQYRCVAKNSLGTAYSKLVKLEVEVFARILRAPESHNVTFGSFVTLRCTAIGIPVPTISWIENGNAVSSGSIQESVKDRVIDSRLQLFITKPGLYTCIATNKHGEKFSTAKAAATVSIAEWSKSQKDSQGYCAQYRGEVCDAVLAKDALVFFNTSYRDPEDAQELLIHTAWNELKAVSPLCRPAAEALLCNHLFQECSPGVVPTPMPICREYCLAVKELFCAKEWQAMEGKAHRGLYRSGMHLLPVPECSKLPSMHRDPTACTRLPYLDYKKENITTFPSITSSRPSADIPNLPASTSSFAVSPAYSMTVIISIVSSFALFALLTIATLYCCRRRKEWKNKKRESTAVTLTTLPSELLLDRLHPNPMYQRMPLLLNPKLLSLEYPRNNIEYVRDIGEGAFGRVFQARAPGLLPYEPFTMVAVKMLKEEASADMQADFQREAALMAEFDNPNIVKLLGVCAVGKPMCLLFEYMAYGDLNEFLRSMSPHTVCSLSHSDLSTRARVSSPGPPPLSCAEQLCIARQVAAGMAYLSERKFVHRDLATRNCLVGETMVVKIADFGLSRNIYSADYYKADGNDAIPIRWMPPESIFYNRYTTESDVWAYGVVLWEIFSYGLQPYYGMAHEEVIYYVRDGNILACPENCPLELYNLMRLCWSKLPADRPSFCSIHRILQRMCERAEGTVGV
testDetails: cell-based or functional assay
For each record, write down the corresponding MuSK phosphorylation, % versus agrin (C2C12 myotubes).
Write it as a number; the unit % versus agrin goes unstated.

Return reported MuSK phosphorylation, % versus agrin (C2C12 myotubes). Input binder: 3D10a (antibody, human IgG1, kappa, L234A L235A, V domains shown) VH: EVQLVESGGGLVKPGGSLRLSCAASGFTFSASTMAWVRQAPGKGLEWVSSVSGDSHHIYYADSLKGRFTISRDNAKNSLYLQMNSLRAEDTAVYYCARERLLRLGVGFDSWGQGTLVTVSS VL: DIQMTQSPSSLSASVGDRVTITCRASQRISGFVNWYQQKPGKAPKLLIYAASTLQSGVPSRFSGSGSGTDFTLTISSLQPEDFATYYCQQSYSPLYTFGQGTKLEIKR 83

Return reported MuSK phosphorylation, % versus agrin (C2C12 myotubes). Input binder: 3F6c (antibody, human IgG1, kappa, L234A L235A, V domains shown) VH: EVQLVESGGGLVKPGGSLRLSCAASGFTFSSYTMDWVRQAPGKGLEWVSSIGSNGDYIYYADSVRGRFTISRDNAKNSLYLQMNSLRAEDTAVYYCARGQLAVAGTHFDYWGQGTLVTVSS VL: DIQMTQSPSSLSASVGDRVTITCRASQKVNKYVNWYQQKPGKAPKLLIYAASTLQSGVPSRFSGSGSGTDFTLTISSLQPEDFATYYCQQSYSPLSTFGQGTKLEIKR 100

Return reported MuSK phosphorylation, % versus agrin (C2C12 myotubes). Input binder: 3D9b (antibody, human IgG1, kappa, L234A L235A, V domains shown) VH: EVQLVESGGGLVKPGGSLRLSCAASGFTFSTYTMHWVRQAPGKGLEWVSSISSRSAYKYYADSVKGRFTISRDNAKNSLYLQMNSLRAEDTAVYYCARDFFQLGPPRFDSWGQGTLVTVSS VL: DIQMTQSPSSLSASVGDRVTITCRASQRISSFLNWYQQKPGKAPKLLIYGASNLQSGVPSRFSGSGSGTDFTLTISSLQPEDFATYYCQQSYSPSYTFGQGTKLEIKR 205

Return reported MuSK phosphorylation, % versus agrin (C2C12 myotubes). Input binder: 4D3 (antibody, human IgG1, kappa, L234A L235A, V domains shown) VH: EVQLVESGGGLVKPGGSLRLSCAASGFTFSSYTMTWVRQAPGKGLEWVSSISSGGHYIYYTDSLKGRFTISRDNAKNSLYLQMNSLRAEDTAVYYCARERLLRLGVGFDFWGQGTLVTVSS VL: DIQMTQSPSSLSASVGDRVTITCRASQSISGYLNWYQQKPGKAPKLLIYAASTLQSGVPSRFSGSGSGTDFTLTISSLQPEDFATYYCQQSYSALYTFGQGTKLEIKR 112
